Documented GI50 across a set of compounds
- System: HCT-15 colon
- PROCEDURE TEXT: NCI tumour cell line growth inhibition, 48 h

Study these solved cases before continuing.
[[record]]
structure_smiles_string = "O=C(NCc1cccc(CNC(=O)Nc2nc3ccccc3[nH]2)c1)Nc1nc2ccccc2[nH]1"
assay_result = "> 100 µM"

[[record]]
structure_smiles_string = "CC1(C)OC[C@@H]([C@@]2(CO[Si](c3ccccc3)(c3ccccc3)C(C)(C)C)CC=CC(=O)O2)O1"
assay_result = "5.86 µM"

[[record]]
structure_smiles_string = "O=C(Nc1cccc(-n2cc(-c3ccncc3)c(-c3cc(O)cc(Cl)c3)n2)c1)c1ccc(N2CCOCC2)c(C(F)(F)F)c1"
assay_result = "0.559 µM"


Now let's try a different one.
GET /values?readout=GI50&item= O=C1NN(C2=NNC3(C(=O)N2)c2ccccc2-c2ccccc23)C(c2ccccc2)=N/C1=C/c1ccc(Cl)cc1
54.1 µg/mL

----------
Documented TGI across a set of compounds
- Test system: HOP-92 NSCLC
- PROCEDURE TEXT: NCI tumour cell line growth inhibition, 48 h

Study these solved cases before continuing.
[[record]]
compound = "CC(=O)O[C@H]1C(=O)[C@@]2(C)C([C@H](OC(=O)c3ccccc3)[C@]3(O)C[C@H](OC(=O)[C@H](O)[C@@H](NC(=O)c4ccccc4)c4ccccc4)C(C)=C1C3(C)C)[C@]1(OC(C)=O)CO[C@@H]1C[C@@H]2O (some centres undefined)"
assay_result = "> 50 µM"

[[record]]
compound = "COC(=O)C(Cc1cn(C(C)n2cc(CC(NC(C)=O)C(=O)OC)c3ccccc32)c2ccccc12)NC(C)=O (centres undefined)"
assay_result = "> 100 µM"


GET /values?readout=TGI&item= Cc1c(N2CCOCC2)nc2ccc(Cl)cc2c1-c1ccccc1
> 100 µM

GET /values?readout=TGI&item= NS(=O)(=O)c1nnc(NC(=O)N(c2ccccc2)c2ccccc2)s1
53 µM

----------
- Test system: OVCAR-4 ovarian
- PROCEDURE TEXT: NCI tumour cell line growth inhibition, 48 h
Documented TGI across a set of molecules

Study these solved cases before continuing.
[[record]]
molecule = "COc1ccc(N=Nc2c(-c3c(OC)cc4occc4c3OC)[nH]c(=O)c(C#N)c2C)cc1"
assay_result = "> 100 µM"

[[record]]
molecule = "CC(=O)NNc1nc(C)c(C(=O)NNC(=O)C(=O)Nc2ccc([N+](=O)[O-])cc2[N+](=O)[O-])s1"
assay_result = "> 100 µM"

[[record]]
molecule = "CC1(C)N=C(N)N=C(N)N1c1ccc(CCC(=O)Nc2ccc(S(=O)(=O)F)cc2)cc1"
assay_result = "> 100 µM"

[[record]]
molecule = "O=c1oc2ccc3ccccc3c2cc1-c1cn2ccsc2n1"
assay_result = "40.7 µM"

[[record]]
molecule = "O=c1/c(=C/c2ccccc2[N+](=O)[O-])sc2nnc(-c3cccnc3)n12"
assay_result = "> 100 µM"

[[record]]
molecule = "OCc1cc2c(cn1)[nH]c1ccc(NCc3ccccc3)cc12"
assay_result = "> 100 µM"

[[record]]
molecule = "CC(=O)O[C@H]1C(=O)[C@@]2(C)C([C@H](OC(=O)c3ccccc3)[C@]3(O)C[C@H](OC(=O)[C@H](O)[C@@H](NC(=O)c4ccccc4)c4ccccc4)C(C)=C1C3(C)C)[C@]1(OC(C)=O)CO[C@@H]1C[C@@H]2O (some centres undefined)"
assay_result = "> 50 µM"

[[record]]
molecule = "CCCCCOc1ccc(/C=N/Nc2cc(C)nc3ccc(Cl)cc23)cc1"
assay_result = "3.22 µM"


GET /values?readout=TGI&item= COc1cc2c(cc1Nc1nc(N3CCc4ccccc43)c3cc[nH]c3n1)N(C(=O)CN(C)C)CC2
9.04 µM

GET /values?readout=TGI&item= CC1=NN(C(=O)Cc2ccccc2)C(=O)/C1=C\c1ccc(O)cc1
> 100 µM

GET /values?readout=TGI&item= c1ccc(-c2[nH]ncc2-c2ccnc(-c3ccc(OCCn4ccnc4)cc3)c2)nc1
> 25 µM

GET /values?readout=TGI&item= COc1ccc2c(c1)C(=O)c1c-2c(Nc2ccccc2OC)nc2ccccc12
> 100 µM

GET /values?readout=TGI&item= O=[N+]([O-])c1ccccc1C1SCc2nc3ccccc3n21 (centres undefined)
> 100 µM

GET /values?readout=TGI&item= O=C(CC(NC(=O)C(F)(F)F)C(=O)O)OCc1ccccc1 (centres undefined)
> 100 µM

GET /values?readout=TGI&item= CCn1c2c(c3ccccc3c1=O)C(=O)c1ccccc1-2
> 100 µM

GET /values?readout=TGI&item= CC1(C)OC[C@@H]([C@@]2(CO[Si](c3ccccc3)(c3ccccc3)C(C)(C)C)CC=CC(=O)O2)O1
> 100 µM

GET /values?readout=TGI&item= O=CC(I)=C(c1ccccc1)c1ccccc1
27.3 µM

GET /values?readout=TGI&item= N#CC(C(=O)C(=O)Nc1c(Cl)cccc1Cl)c1ccccc1 (centres undefined)
> 100 µM

GET /values?readout=TGI&item= CC(C)(CO)CNC(=O)c1ccc2[nH]c(O)c(N=Nc3ccc(S(N)(=O)=O)cc3)c2c1
> 25 µM

----------
- Test system: ACHN renal
- PROCEDURE TEXT: NCI tumour cell line growth inhibition, 48 h
MEASURED PARAMETER: TGI (µM)
Use µM as the unit, but write only the number.

GET /values?readout=TGI&item= CC(C)C(Br)CCC1=CCC(Br)(Br)C1 (stereo unspecified)
30.6

GET /values?readout=TGI&item= c1ccc(-c2c(-c3ccccc3)[n+](Cc3ccc4ccccc4c3)c(-c3ccc(-c4nc5ccccc5s4)cc3)n2Cc2ccc3ccccc3c2)cc1
0.378

GET /values?readout=TGI&item= O=CC(I)=C(c1ccccc1)c1ccccc1
38.1

GET /values?readout=TGI&item= CN(CCN1CCCC1)C1CCc2cc(Cl)c(Cl)cc2C1 (stereo unspecified)
30.5

GET /values?readout=TGI&item= Nc1nc2c(c3cnccc13)C(c1ccc(Cl)c(Cl)c1)Cc1cnccc1-2 (stereo unspecified)
4.04

GET /values?readout=TGI&item= CCN1C(=S)N(CC)C2C1NC(=S)N2/N=C/C=C/c1ccccc1OC (stereo unspecified)
40.5

GET /values?readout=TGI&item= CCN(CC)CCCNc1ccc(C)c2sc3ccccc3c(=O)c12
2.31

GET /values?readout=TGI&item= Cn1c2ccccc2n2c3ncccc3c(=O)c(C#N)c12
11.7

GET /values?readout=TGI&item= COc1cc([C@@H]2c3cc4c(cc3[C@@H](NC(=O)c3ccc(C#N)cc3)C3COC(=O)[C@@H]32)OCO4)cc(OC)c1O (stereo partly specified)
1.47

GET /values?readout=TGI&item= CCCCCOc1ccc(/C=N/Nc2cc(C)nc3ccc(Cl)cc23)cc1
3.13

GET /values?readout=TGI&item= O=C1/C(=C/c2ccc(Cl)c(Cl)c2)CN(C(=O)CCN2CCC(=NO)CC2)C/C1=C\c1ccc(Cl)c(Cl)c1
1.62

GET /values?readout=TGI&item= COC(=O)/C=C(\C)CC/C=C(\C)CCC1OC1(C)C (stereo unspecified)
23.3

----------
- Tested on: HOP-92 NSCLC
- PROCEDURE TEXT: NCI tumour cell line growth inhibition, 48 h
Documented TGI across a set of compounds

Study these solved cases before continuing.
[[record]]
compound = "c1ccc(-c2[nH]ncc2-c2ccnc(-c3ccc(OCCn4ccnc4)cc3)c2)nc1"
measured_parameter = "TGI"
assay_result = "> 25 µM"

[[record]]
compound = "O=[N+]([O-])c1cccc(C2=NN(c3ccccc3)C3c4cc(Br)ccc4OCC23)c1 (configuration not stated)"
measured_parameter = "TGI"
assay_result = "> 100 µM"

[[record]]
compound = "CCN(C)c1nc(N(C)CC)c2nc(N(C)CC)nc(N(C)CC)c2n1"
measured_parameter = "TGI"
assay_result = "> 100 µM"

[[record]]
compound = "Cc1ccc2c(c1C)C(=O)C1(Cc3cc4c(cc3C1=O)CCC4)C2 (configuration not stated)"
measured_parameter = "TGI"
assay_result = "> 100 µM"

[[record]]
compound = "CC1=NN(C(=O)Cc2ccccc2)C(=O)/C1=C\\c1ccc(O)cc1"
measured_parameter = "TGI"
assay_result = "> 100 µM"

[[record]]
compound = "O=C1Oc2ccccc2C(=O)/C1=C1/C=C(c2ccccc2)SS1"
measured_parameter = "TGI"
assay_result = "> 100 µM"

[[record]]
compound = "COC(=O)/C=C(\\C)CC/C=C(\\C)CCC1OC1(C)C (configuration not stated)"
measured_parameter = "TGI"
assay_result = "22.8 µM"

[[record]]
compound = "COc1cc(C)c(CC/C(C)=C/Cc2cc(O)ccc2O)c(C)c1C"
measured_parameter = "TGI"
assay_result = "> 25 µM"


GET /values?readout=TGI&item= COC(=O)CCC(NC(=S)N/N=C/c1cccs1)C(=O)OC (configuration not stated)
> 100 µM

GET /values?readout=TGI&item= O=C1CC(c2ccccc2)Oc2ccccc21 (configuration not stated)
62.8 µM

GET /values?readout=TGI&item= CN(/N=C1\C(=O)Nc2ccccc21)c1ccccc1
> 100 µM

GET /values?readout=TGI&item= CC(=O)O[C@@H](c1nccn1Cc1ccccc1)[C@H]1OC(C)(C)O[C@@H]1[C@H]1COC(C)(C)O1
> 100 µM

GET /values?readout=TGI&item= COC(=O)c1ccccc1C1CN=NC12Cc1c(ccc(C)c1C)C2=O (configuration not stated)
84.2 µM

GET /values?readout=TGI&item= O=C1C=CC2(O[C@H](c3ccccc3)[C@@H](c3ccccc3)O2)[C@H](Sc2ccccc2O)C1
1.32 µM

GET /values?readout=TGI&item= CC(C)NC(=O)OCc1c(COC(=O)NC(C)C)n(C)c2c1ccc1sccc12
27.3 µM

GET /values?readout=TGI&item= S=C(Cc1ccc2c(c1)Sc1ccccc1O2)N1CCOCC1
> 100 µM

GET /values?readout=TGI&item= CC(=O)Nc1nc(Cl)cc(NCC2(CO)CCC2)n1
> 100 µM

GET /values?readout=TGI&item= O=C(O)c1nc2ccc(C(F)(F)F)cc2[nH]c1=O
> 100 µM

GET /values?readout=TGI&item= CCOC(=O)c1csc(NC(=O)C(C)N2CCCC2)n1 (configuration not stated)
> 100 µM
